Molecular target: NUAK1 (Homo sapiens, UniProt O60285)
Sequence (O60285 1-661): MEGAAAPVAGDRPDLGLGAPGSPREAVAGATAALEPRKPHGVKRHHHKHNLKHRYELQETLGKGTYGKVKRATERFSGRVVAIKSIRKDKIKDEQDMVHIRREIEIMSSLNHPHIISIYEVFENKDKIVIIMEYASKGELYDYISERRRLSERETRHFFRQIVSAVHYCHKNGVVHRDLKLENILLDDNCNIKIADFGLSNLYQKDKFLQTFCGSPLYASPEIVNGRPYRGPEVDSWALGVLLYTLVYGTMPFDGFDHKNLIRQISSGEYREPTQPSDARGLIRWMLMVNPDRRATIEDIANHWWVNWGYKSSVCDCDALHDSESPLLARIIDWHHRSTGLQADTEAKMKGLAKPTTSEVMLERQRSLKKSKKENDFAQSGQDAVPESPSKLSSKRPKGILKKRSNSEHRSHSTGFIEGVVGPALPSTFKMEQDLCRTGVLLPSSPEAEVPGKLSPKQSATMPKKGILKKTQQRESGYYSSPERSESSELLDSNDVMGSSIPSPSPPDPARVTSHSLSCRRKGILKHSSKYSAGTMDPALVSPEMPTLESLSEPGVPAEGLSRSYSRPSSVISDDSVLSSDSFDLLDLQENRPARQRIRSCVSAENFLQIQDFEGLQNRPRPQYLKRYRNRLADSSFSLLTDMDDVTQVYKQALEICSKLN
pIC50: −log10 of the molar value.
Assignment: determine reported pIC50 for the given molecules.

Would you please look over these solved cases?
CN1CCN(c2ccc(Nc3ncc(C(F)(F)F)c(Nc4ccsc4C(N)=O)n3)c(OC(F)F)c2)CC1 | 8.00 to 10.00
CN1CCN(c2ccc(Nc3ncc(Cl)c(Nc4ccsc4C(N)=O)n3)c(OC(F)F)c2)CC1 | 7.00 to 7.96
CCN1CCN(c2ccc(Nc3ncc(Cl)c(Nc4ccsc4C(N)=O)n3)c(OC(F)F)c2)CC1 | 7.00 to 7.96

Provide pIC50 values for the following items, in order.
1. CN1CCC(c2ccc(Nc3ncc(Cl)c(Nc4ccsc4C(N)=O)n3)c(OC(F)F)c2)CC1
2. CN1CCCN(C2CCN(c3ccc(Nc4ncc(Cl)c(Nc5ccsc5C(N)=O)n4)c(OC(F)F)c3)CC2)CC1
3. NC(=O)c1sccc1Nc1nc(Nc2ccc(N3CCN4CCOC[C@H]4C3)cc2OC(F)F)ncc1Cl
4. Cc1csc(Nc2nc(Nc3ccc(N4CCN(C)CC4)cc3OC(F)F)ncc2Cl)c1C(N)=O
5. Cc1cnc(Nc2ccc(N3CCN(C)CC3)cc2OC(F)F)nc1Nc1ccsc1C(N)=O
6. COc1cc(N2CCN(C)CC2)ccc1Nc1ncc(Cl)c(Nc2ccsc2C(N)=O)n1 [Compound C-1, reference compound]
7. CC(C)N1CCN(C2CCN(c3ccc(Nc4ncc(C(F)(F)F)c(Nc5ccsc5C(N)=O)n4)c(OC(F)F)c3)CC2)CC1
8. C[C@@H]1CN(C2CCN(c3ccc(Nc4ncc(Cl)c(Nc5ccsc5C(N)=O)n4)c(OC(F)F)c3)CC2)C[C@H](C)N1C

stdout:
1: 7.00 to 7.96; 2: 7.00 to 7.96; 3: 7.00 to 7.96; 4: 7.00 to 7.96; 5: 7.00 to 7.96; 6: 8.00 to 10.00; 7: 7.00 to 7.96; 8: 7.00 to 7.96

List the reported pIC50 of each molecule below.
1. COCCN1CCN(c2ccc(Nc3ncc(Cl)c(Nc4ccsc4C(N)=O)n3)c(OC(F)F)c2)CC1
2. CN(C)C1CCN(c2ccc(Nc3ncc(Cl)c(Nc4ccsc4C(N)=O)n3)c(OC(F)F)c2)CC1

stdout:
1: 7.00 to 7.96; 2: 8.00 to 10.00

// for each molecule in input: emit pIC50
1. CN1C2CCC1CN(c1ccc(Nc3ncc(Cl)c(Nc4ccsc4C(N)=O)n3)c(OC(F)F)c1)C2
2. CN1CCc2cc(OC(F)F)c(Nc3ncc(Cl)c(Nc4ccsc4C(N)=O)n3)cc2C1

stdout:
1. 7.00 to 7.96
2. 6.00 to 7.00
